# Tested on: HL-60(TB) leukemia
# test name: NCI tumour cell line growth inhibition, 48 h; in the data active = GI50 below about 0.43 µM; inactive = the rest
Pick one and only one: class 1 (active), class 0 (inactive)

QUERY: Can you look up the reported call for CC(=N\O)/C(C)=N/O.CC(=N\O)/C(C)=N/O.[Pd] for me?
RESULT: class 0

QUERY: What was the test verdict on COc1ccc(CNCCN2C(=O)c3ccc4c5c(ccc(c35)C2=O)C(=O)N(CCNCc2ccc(OC)cc2)C4=O)cc1 ?
RESULT: class 1

QUERY: Hello, I am checking results. What call was entered for COc1cc(C2C3=C(COC3=O)N(CCO)c3cc4c(cc32)OCCO4)cc(OC)c1O (stereo not given) ?
RESULT: class 0

QUERY: Any idea what this test logged for CN1CCN(c2nc(NCCNc3ccnc4cc(Cl)ccc34)c3ccccc3n2)CC1 ?
RESULT: class 0

QUERY: Identify the outcome logged in this assay for the compound shown: O=c1cc(N2CCOCC2)oc2c(-c3ccccc3)cccc12
RESULT: class 0

Values compiled from PubChem BioAssay (NCI).
